system tested: HCV replicon
assay notes: Anti-HCV assay / replicon assay (EC50, luciferase read-out)
Assay type: cell-based, hepatitis C virus (HCV)
condition parameters: human hepatoma Huh-7 cell line harbouring a HCV replicon, 3 days, luciferase luminescence; read-out: EC50
measured endpoint: pEC50
Remember, pEC50 is on a log scale: it is -log10 of the molar concentration.

1) CCOc1ccc(-c2ccc3ncnc(N4CCN(C(=O)Nc5cccc(Cl)c5)CC4)c3n2)cc1Cl	6.60

Measured pEC50, COc1ccc(-c2ccc3nc(Cl)nc(N4CCN(C(=O)Nc5cccc(C)c5)CC4)c3n2)cc1OC : 6.82

COc1cc(-c2ccc3nc(N)nc(N4CCN(C(=O)Nc5ccc(F)cc5)CC4)c3n2)ccc1OC(C)C yielded pEC50 of 7.46

So, Cc1cccc(NC(=O)N2CCN(c3nc(N)nc4ccc(-c5ccc6c(c5)OCCO6)nc34)CC2)c1 ? Its pEC50 was 8.30

pEC50 reading for COc1ccc(-c2ccc3nc(Nc4ccc(C)cc4)nc(N4CCN(C(=O)Nc5cccc(C)c5)CC4)c3n2)cc1OC : 7.13
